Provenance of the data: the nanobody polyreactivity screen of Harvey et al. (2022)

experiment: yeast display, Sf9 membrane polyspecificity reagent, FACS + sequencing; frameworks hold sequencing errors
endpoint-label: polyreactivity (PSR sort gate)

Sample records with polyreactivity (PSR sort gate):
QVQLVESGGGLVQAGGSLRLSCAASGRIFGKNDMGWYRQAPGKEREFVATIDWSGGSTYYADSVKGRFTISRDNAKNTVYLQMNSLKPEDTAVYYCAASGWNRYLFDYWGQGTQVTVSS
low polyreactivity
QVQLVESGGGLVQAGGSLRLSCAASGYTFYFYAMGWSRQAPGKEREFVAAIRSSGGRTYYADSVKGRFTISRDNAKNNVYLQMNSLKPEDTAVYYCAAAGYYYSVDGAGPRYDYWGQGTQVTVSS
low polyreactivity
QDQLVESGGGLVQAGGSLRLSCAASGIIFYVYAMGWYRLAPGKERELVAAISRSGGRTYYADSVKGRFTISRDNAKNTVYFQMNSLKPEDTAVYYCAADAYRTPTHYYWGQGTQVTVSS
high polyreactivity
QVQLVESGAGLVQAGGSLRLTCAASGRIFVINAMGWLRQAPGKETELVAPITGGGSTNYADSVKGRFTISRDNAKNTVYLQMNSLKPEDTAVYYCAADYRPVRRFYYSRYDYWGQGTQVTVSS
low polyreactivity
QVQLVESGGGLVQAGGSLRLSCAASGFIFRGYAMGWYRQAPGKERELVAAITGGGGRTYYADSVKGRFTISRDNAKNTVYLQMNSLKPEDTAVYYCARRFAYSFDYGYWGQGTQVTVSS
high polyreactivity
QVQLVESGGGLVQAGRSLRLSCAASGITFDDYDMGCYRQAPGKEREFVAAISFSGSSTYYADSVKGRFTISRDNAKNTVYLLMNSLKPEDTAVYYCNADYVYSGCLYYGKDYWFDYWGHGTQVTVSS
low polyreactivity
KVQLVESGGGLVQAGGSLRLSCAASGFIFYYYAMGWYRQAPGKERELVAAISTDGGSTYYADSVKGRFTISRDNAKNTVYLQMNSLKPEDTAVYYCNAPYYGWGYWPLEYIRYEYWGQGTQVTVSS
low polyreactivity
QVQLVESGGGLVQAGGSLRLSCAASGSTFSYYTMGWYRQSPGKERELVAVISTSGGNTYYADSVKGRFTISRDNAKNTVYLQMNSLKPEDTAVYYCAAAYPRVTYKNGYYWGQGTQVTVSS
high polyreactivity
QVQRVESGGGLVQAGGSLRLSCAASGFTFYRYAMGWYRQAPGKEREFVAVINIRGSTTYYADSVKGRFTISRDNAKNTVYLQMNSLKPEDTAVYYCARRYRGPYYSLPRRKEFDYWGQGTQVTVSS
high polyreactivity
QVQLVESGGGLVQAGGSLRFSCAAYGSISRYYAMGWYRLAPGKERELVAAISSNGGSTYYADSVKGRFTISRDNAKNTVYLQMNSLKPEDTAVDDCAAESDYFRYDYWGQGTQVTVSS
high polyreactivity

Turning now to a further record.
Q: Using the record for QVQLVESGGGLVQAGGSLRLSCAASGRTFRYYTMGWYRQAPGTERELVAAITGGSRTNYADSVKGRFTISRDNAKNTVYLQMNSLKPEDTAVYYCAARRSYLLRYDYWGQGTQVTVSS , report its polyreactivity (PSR sort gate).
Ans: high polyreactivity

* * *

assay: yeast display, Sf9 membrane polyspecificity reagent, FACS + sequencing; frameworks hold sequencing errors
endpoint-label: polyreactivity (PSR sort gate)

Sample records with polyreactivity (PSR sort gate):
QVQLVESGGGLVQAGGSLRLSCAASGSTLYWYAMGWYRQAPGKERELVAAITSGGNTYYADSVKGRFTISRDNAKNTVYLQMNSLKPEDTAVSYCAVGSFGVSAYSYYYWGQGTQVTVSS
low polyreactivity
QVQLVESGGGLVQAGGSLRLSCAASGSTFRQNAMGWYRQAPGKERELVAAISGTAGSTYYADSVKGRFTISRDNAKNTVYLQMNSLKPEDTAVYYCAKRKITKYGYGYWGQGTQVTVSS
high polyreactivity
QVQLVESGGGLVQAGGSLRLSCAASGFIFYPYAMGWYRQAPGKERELVAAITGSGGSTYYADSVKGRFTISRDNAKNTVYLQMNSLKPEDTAVYYCAAYYGPRKMDYWGQGTQVTVSS
high polyreactivity
QVQLVESGGGLVQAGGILRLSCAASGFTFQNNAMGWYRQAPGKERELVARITRSDGSTYYADSVKGRFTISRDNAKNTVYLQMNSLKPEDNAVYYCAARYGLLGSSRGGYWGQGTQVTVSS
low polyreactivity

Turning now to a further record.
Q: Using the record for QVQLVESGGGLVQAGGSLRLSCAASGSTFEYNAMRWYRQAPGKERELVAAITWSVGSTYYADSVKGRFTISRDNAKNSVSIQMNSLKPEDTAVDYCARVPSAFARWHTYDYWGQGTQVTVSS , report its polyreactivity (PSR sort gate).
Ans: low polyreactivity
